Test system: CRL-7250
Test: Cytotoxic Profiling of Annotated Libraries Using Quantitative High-Throughput Screening (AID 1296008); further: on the % scale 0 is the no-effect control and ±100 the full control effect; nearly all actives have a fitted effect of over 60% in size
Details: Five cell lines viability, CellTiter-Glo ATP luminescence, 48-72 h; active compounds read low
Inconclusive results are not listed.
propertyName: max response (%)
One number for each entry, in %.

Before answering, review these 4 worked examples.
CCCN1CCC[C@@H](c2cccc(S(C)(=O)=O)c2)C1 ... -1.62
NC(=O)[C@@H]1CC[C@H](c2ccc(OCc3ccccc3F)cc2)N1 ... -6.02
COc1ccc(CC(NC(C)=O)C(=O)O)cc1 (stereo not drawn) ... 0.775
COc1ccc(/C=C/C(=O)O[C@@H]2[C@@H](O)[C@@H](O)[C@H](O[C@H]3[C@@H]4C=CO[C@@H](O[C@@H]5O[C@H](CO)[C@@H](O)[C@H](O)[C@H]5O)[C@@H]4[C@@]4(CO)O[C@@H]34)O[C@H]2C)cc1 ... -8.85

I'm hoping you can list max response for every molecule here, please.
1. C=C[C@H]1[C@H](O[C@@H]2O[C@H](CO)[C@@H](O)[C@H](O)[C@H]2O)OC=C(C(=O)OC)[C@H]1CCO
2. Fc1ccccc1-c1nc2ccn(Cc3ccc(-c4ccc(C(F)(F)F)cc4C(F)(F)F)nn3)cc-2n1
3. CC(=O)OC/C(=C/C(=O)O)CC[C@@H]1C(CO)=CC[C@@H]2C(C)(C)CCC[C@@]12C
4. C=C1CC2C3(C)C=CC(=O)OC(C)(C)C3CC(OC(C)=O)C2(C)C2C(=O)OC(C)C(=O)C12C (stereo not drawn)

Response given:
1. -6.38
2. 1.68
3. 1.35
4. -1.41

###

Tested on: NIH3T3
Test: qHTS assay to identify novel small-molecules to repurpose for Merkel cell carcinoma treatment (AID 1296009); further: nearly all actives have a fitted effect of over 60% in size
Conditions: MCC and control cell lines, CellTiter-Glo viability, 72 h; at 44.8 µM (top of the series) unless noted
Inconclusive results are not listed. Active and inactive are the calls of the source. Calls come from the whole dose curve; as a rule, active = well fitted inhibition curve with a large enough effect; inconclusive = small, poorly fitted or top-dose-only effect; inactive = flat fitted curve, though single readings scatter.
propertyName: outcome

Before answering, review these 8 worked examples.
C=C1[C@@H]2CC[C@@]3(C)[C@H](c4ccoc4)OC(=O)C[C@]13O[C@H]1CC(=O)C(C)(C)[C@H](C(O)C(=O)OC)[C@]12C (some centres not stated) ... inactive [at 17.4 µM]
C[C@]1(OC(=O)/C=C\c2ccc(O)cc2)C[C@@H](O)[C@]2(O)C=CO[C@@H](O[C@@H]3O[C@H](CO)[C@@H](O)[C@H](O)[C@H]3O)C12 (some centres not stated) ... inactive [at 17.4 µM]
COc1cc(C(C)=O)ccc1O[C@@H]1O[C@H](CO[C@@H]2OC[C@@H](O)[C@H](O)[C@H]2O)[C@@H](O)[C@H](O)[C@H]1O ... inactive [at 17.4 µM]
CC1(C)CC[C@]2(C(=O)O)CC[C@]3(C)C(=CCC4[C@@]5(C)C[C@@H](O)[C@H](O)[C@](C)(CO)C5CC[C@]43C)[C@@H]2[C@@H]1O (some centres not stated) ... inactive [at 17.4 µM]
CC1=COC(OC2OC(CO)C(O)C(O)C2O)C2C(CO)CC(OC(=O)/C=C/c3ccc(O)cc3)C12 (configuration not stated) ... inactive [at 17.4 µM]
C[C@]1(O)CC[C@@H]2C(C(=O)O)=CO[C@@H](O[C@@H]3O[C@H](COC(=O)/C=C/c4ccc(O)c(O)c4)[C@@H](O)[C@H](O)[C@H]3O)[C@@H]21 ... inactive [at 17.4 µM]
C[C@@H]1O[C@@H](O[C@H]2[C@H](OC(=O)[C@]34CCC(C)(C)C[C@H]3C3=CCC5[C@@]6(C)C[C@@H](O)[C@@H](O)[C@@](C)(CO)C6[C@H](O)C[C@@]5(C)[C@]3(C)CC4)OC[C@H](O)[C@@H]2O)[C@H](O)[C@H](O)[C@H]1O[C@@H]1OC[C@@H](O)[C@H](O[C@H]2O[C@H](C)[C@@H](O)[C@H](O)[C@@H]2O)[C@H]1O (some centres not stated) ... inactive [at 9.27 µM]
C/C(=C\CCC(C)(C)O)CCO[C@@H]1O[C@H](CO[C@@H]2O[C@@H](C)[C@H](O)[C@@H](O)[C@H]2O)[C@@H](O)[C@H](O)[C@H]1O ... inactive [at 17.4 µM]

I'm hoping you can list outcome for every molecule here, please.
1. CC(=O)NC1CC(=O)C23C(=O)NC(Cc4c[nH]c5ccccc45)C2C(C)=C(C)C(O)C3/C=C/CC(C)/C=C(/C)C(O)C1O (configuration not stated)
2. C=C1C2(C)CC3C4(C)C=CC(=O)OC(C)(C)C4CCC3(C)C1(C(=O)OC)C(=O)C(C)(O)C2=O (configuration not stated)

Response given:
1: inactive [at 17.4 µM]; 2: inactive [at 17.4 µM]

I'm hoping you can list outcome for every molecule here, please.
1. COc1cc(C2OCC3(O)C(c4ccc(O[C@@H]5O[C@H](CO)[C@@H](O)[C@H](O)[C@H]5O)c(OC)c4)OCC23O)ccc1O (some centres not stated)
2. CC1OC(OC2CCC3(C)C(CCC4(C)C3C=CC35OCC6(CCC(C)(C)CC63)CCC45C)C2(C)CO)C(OC2OC(CO)C(O)C(O)C2O)C(O)C1OC1OC(CO)C(O)C(O)C1O (configuration not stated)

Response given:
["inactive [at 17.4 µM]", "inactive [at 9.27 µM]"]

###

Biological target: Glutathione peroxidase 1 (Homo sapiens)
Test: Primary qHTS Assay for Inhibitors of Recombinant Selenoprotein Glutathione Peroxidase 1 (GPX1) (AID 1845191); further: nearly all actives have a fitted effect of over 65% in size
Conditions: recombinant GPX1, GR-coupled NADPH fluorescence, 15 min; series mostly up to 27.7 µM
Results filed as inconclusive are left out. The source made the active and inactive calls. Calls come from the whole dose curve; as a rule, active = well fitted inhibition curve with a large enough effect; inconclusive = small, poorly fitted or top-dose-only effect; inactive = flat fitted curve, though single readings scatter.
propertyName: outcome

Before answering, review these 5 worked examples.
CC1(C)CC[C@]2(C(=O)O)[C@H](O)C[C@]3(C)C(=CCC4[C@@]5(C)CC[C@H](O[C@@H]6OC[C@@H](O)[C@H](O)[C@H]6O)[C@@](C)(C(=O)O)C5CC[C@]43C)[C@@H]2C1 (stereo partly drawn) ... inactive
C=C1Cc2c(Cl)cc3[nH]c4c5c3c2[C@@]2(O)[C@@H]1C[C@@H]2C(C)(C)O[C@H]5C1CC[C@@]2(O)[C@@]35O[C@@H]3[C@H]3OC(C)(C)[C@H]3O[C@H]5CC[C@]2(C)[C@@]41C (stereo partly drawn) ... inactive
CN[C@H](CNC(=O)N1CCC[C@@H]([C@@H](OCCNC(=O)OC)c2cccc(Cl)c2)C1)C[C@H]1CCCOC1 ... inactive
CN(C)C(=O)C(O)C(Cc1ccccc1)NC(=O)c1cc2cc(Cl)ccc2[nH]1 (stereo not drawn) ... inactive
CS(=O)(=O)c1ccccc1N1CCN(c2nc3c(c(=O)[nH]2)CSCC3)CC1 ... inactive

I'm hoping you can list outcome for every compound here, please.
1. COc1cc(CO)ccc1O[C@@H]1O[C@H](CO)[C@@H](O)[C@H](O)[C@H]1O
2. CC1=C2C[C@@]3(C)[C@@H](CCC[C@@H]3C)C[C@@]2(O)OC1=O
3. CC/C=C\CC1C(CC(=O)O)CCC1OC1OC(CO)C(O)C(O)C1O (stereo not drawn)
4. COc1ccc(/C=C/C(=O)O[C@@H]2[C@@H](OC(C)=O)[C@@H](OC(C)=O)[C@H](O[C@H]3[C@@H]4C=CO[C@@H](O[C@@H]5O[C@H](CO)[C@@H](O)[C@H](O)[C@H]5O)[C@@H]4[C@@]4(CO)O[C@@H]34)O[C@H]2C)cc1
5. CC(=O)N[C@H]1[C@H](O[C@H]2CC[C@]3(C)C4CC=C5[C@@H]6CC(C)(C)CC[C@]6(C(=O)O)[C@H](O)C[C@@]5(C)[C@]4(C)CC[C@H]3C2(C)C)O[C@H](CO)[C@@H](O)[C@@H]1O (stereo partly drawn)
6. COC(=O)c1ccccc1O[C@@H]1O[C@H](CO[C@@H]2OC[C@@H](O)[C@H](O)[C@H]2O)[C@@H](O)[C@H](O)[C@H]1O
7. CC1(C)CC(NC(=O)C(=O)Nc2ccc(Cl)cc2)CC(C)(C)N1

Response given:
inactive
inactive
inactive
inactive
inactive
inactive
inactive

Challenge: Data request, read-out outcome, for C[C@@H]1O[C@@H](O[C@H]2[C@H](O)[C@@H](O)[C@H](OC[C@H]3O[C@@H](OC(=O)[C@]45CCC(C)(C)C[C@H]4C4=CCC6[C@@]7(C)C[C@@H](O)[C@H](O)[C@@](C)(CO)C7[C@H](O)C[C@@]6(C)[C@]4(C)CC5)[C@H](O)[C@@H](O)[C@@H]3O)O[C@@H]2CO)[C@H](O)[C@H](O)[C@H]1O (stereo partly drawn)
Response given: inactive

###

Tested on: NIH3T3
Assay: Cytotoxic Profiling of Annotated Libraries Using Quantitative High-Throughput Screening (AID 1296008); further: on the % scale 0 is the no-effect control and ±100 the full control effect; nearly all actives have a fitted effect of over 60% in size
Settings: Five cell lines viability, CellTiter-Glo ATP luminescence, 48-72 h; active compounds read low
Inconclusive results are not listed. Calls of active or inactive are those of the source. The call rests on the fitted dose curve; in most records, active means well fitted inhibition curve with a large enough effect; inconclusive means small, poorly fitted or top-dose-only effect; inactive means flat fitted curve, though single readings scatter.
propertyName: max response

I'm hoping you can list max response for every molecule here, please.
1. CCOC(=O)C(CCc1ccccc1)NC1CCCN2CCCC(C(=O)O)N2C1=O (stereo not given)
2. COc1cc(O)cc(C)c1C(=O)OC1C(CO)OC(n2ccc(=O)[nH]c2=O)C1OC(C)=O (stereo not given)
3. CC1CCC2(C)CCC3(C)C(=CCC4C5(C)CCC(O)C(C)(C(=O)O)C5CCC43C)C2C1C (stereo not given)
4. CC1=C2CC(C)(C)CC2C(O)C2=C(C1)C(=O)OC2O (stereo not given)

Response given:
0.311% (inactive)
-1.67% (inactive)
4.66% (inactive)
-6.57% (inactive)

Challenge: Data request, read-out max response, for COc1ccc2c(c1)C=C1Cn3c-2c(C2CCCCC2)c2ccc(cc23)C(=O)NS(=O)(=O)N(C)CCOCCN(C)C1=O
Response given: -17.2% (inactive)
